Reported K ass values follow for various compounds
# assayed.system: Plasminogen (Homo sapiens)
# test: Inhibitory activity against the human plasmin

Would you please look over these solved cases?
NC(N)=NCCCCNC(=O)[C@@H]1CCCN1C(=O)[C@H](N)CC1CCCCC1 10000 l M-1
O=C(O)CN[C@H](CC1CCCCC1)C(=O)N1CCC[C@H]1C(=O)NCCCc1c[nH]cn1 < 10000 l M-1
N[C@H](CC1CCCCC1)C(=O)N1CCC[C@H]1C(=O)NCCCc1c[nH]cn1 < 10000 l M-1
N[C@H](CC1CCCCC1)C(=O)N1[C@H](C(=O)NCCCc2c[nH]cn2)C[C@@H]2CCCC[C@@H]21 < 10000 l M-1

# evaluate next
Q: Which K ass is listed for CN[C@H](Cc1ccccc1)C(=O)N1CCC[C@H]1C(=O)N[C@H](C=O)CCCNC(=N)N ?
A: 1.5e+06 l M-1
